B1: library; numbered along this chain (parent)
chain: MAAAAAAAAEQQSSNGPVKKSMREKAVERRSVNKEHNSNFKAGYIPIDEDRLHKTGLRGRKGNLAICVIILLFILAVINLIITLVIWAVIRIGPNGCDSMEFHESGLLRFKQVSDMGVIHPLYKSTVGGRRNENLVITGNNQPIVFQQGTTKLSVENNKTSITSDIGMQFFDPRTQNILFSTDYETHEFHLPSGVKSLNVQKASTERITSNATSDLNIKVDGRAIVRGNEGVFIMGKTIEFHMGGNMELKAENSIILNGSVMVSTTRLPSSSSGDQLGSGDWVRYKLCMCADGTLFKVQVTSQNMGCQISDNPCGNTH

- Variants of: B1
- Assay text: SGCB cell-surface expression functional score (HA stain, bin4 vs bin1, normalised to synonymous) (log10 ratio); higher = more cell-surface SGCB (functional)
Assign Y to entries whose SGCB cell-surface expression functional score (log10) meets or exceeds 0.02; assign N to the rest.

*Q* Does the reported SGCB cell-surface expression functional score (log10) for `N158L` fall at or above the 0.02 mark?
*A* N

*Q* Field entry: `S193M`
*A* N

*Q* Another variant to check: `S114K`
*A* N

*Q* Next variant: `V263M`
*A* N

*Q* Entry `N304H` please
*A* Y

*Q* Same lookup for `E156S` , please.
*A* N

*Q* And `S114P` ?
*A* N

*Q* Input `S114N`
*A* N

*Q* Now the same for `E252D`
*A* N

*Q* Another variant to check: `Q148K`
*A* N

*Q* Thanks! And `F180A` ?
*A* N

*Q* Moving on to the next variant: `S13G`
*A* N

*Q* # repeat for `T55I`
*A* Y

*Q* And the next one, `Y285M` ?
*A* N

*Q* Moving on to the next variant: `V113G`
*A* N

*Q* Same read-out for `A76K` ?
*A* N

*Q* Could you do the same for `K25T` , please?
*A* Y

*Q* Continue with `I81P`
*A* Y

*Q* Please give the result for `Y285S` too.
*A* N

*Q* Same question for `A5D` please.
*A* N

*Q* Subsequent entry: `E35C`
*A* N

*Q* Now the same for `A203L`
*A* N

*Q* Field entry: `N246W`
*A* N

*Q* Same read-out for `L64H` ?
*A* Y

*Q* Next variant: `V155I`
*A* Y

*Q* Can you check `V145R` next?
*A* N

*Q* Try this variant next: `R23T`
*A* Y

*Q* Now this one: `R267T`
*A* N

*Q* Entry `K61R` please
*A* N

*Q* // same read-out, input: `E49N`
*A* Y

*Q* Next variant up: `A224F`
*A* Y

*Q* What about this variant? `H53V`
*A* Y

*Q* Consider next the variant `C67Q` in the same way.
*A* Y

*Q* Now the variant `V195T`
*A* N

*Q* `N79T` ?
*A* N

*Q* Also `I69W` , if possible.
*A* Y

*Q* `E49Y` ?
*A* Y

*Q* And then `A6N` , what is it?
*A* Y

*Q* Now the same for `N141F`
*A* N

*Q* Then this variant: `F171M`
*A* Y

*Q* Consider next the variant `E104G` in the same way.
*A* N

*Q* Could you do the same for `C290R` , please?
*A* N

*Q* Next variant: `S272E`
*A* Y

*Q* Do the same for `P94S` please
*A* N

*Q* Repeat with `V263K`
*A* N
